- testedSystem: T1, human CD3 (TCR complex) on primary human T cells or Jurkat cells (human, UniProt P07766 23-207)
- T1 construct: on the cells it stands in the whole TCR/CD3 complex; also called Jurkat E6-1 (expressing human TCR)
- T1 sequence (P07766 23-207, one chain of several): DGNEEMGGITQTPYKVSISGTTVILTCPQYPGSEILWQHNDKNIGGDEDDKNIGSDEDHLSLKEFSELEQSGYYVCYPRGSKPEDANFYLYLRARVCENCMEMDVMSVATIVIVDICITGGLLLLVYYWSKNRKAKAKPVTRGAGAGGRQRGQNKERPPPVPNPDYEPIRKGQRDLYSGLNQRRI
- assayMethodText: flow cytometry, primary human T cells
Listing: log10(EC50) of selected binders
Heads up: the numbers are on a log10 scale; they represent EC50 in nM.

[[record]]
binder = "4E7-C9 Fab (Fab, V domains shown, also called BDX-4E7-C9) VH: EVQVVETGGSLVQPGKSLKLTCATSGFTFSNAWMHWVRQSPEKQLEWVAQIKDKSNNYATYYAESLKGRFTISRDDPKRSIYLQMNSLREEDTAIYYCRYVHYGIGYAMDAWGQGTSVTVSS VL: DVVMTQTPVSLSVSLGGQVSISCRSSQSLEHNNGNTYLSWYLQKPGQSPQPLIYKVSNRFSGISDRFSGSGSGTDFTLKISRVEPDDLGVYYCGQGTQYPFTFGPGTKLELKR"
measurementkind = "log10(EC50)"
experimentalvalue = 0.79

[[record]]
binder = "13H2-C2 Fab (Fab, V domains shown, also called 13H2-C3) VH: EEELVETGGSLVQPGKSLKLTCATSGFTFSNAWMHWVRQSPDKQLEWVAQIKAKSNNYATYYAESVKGRFTISRDDSKSSVYLQMNNLKEEDTAIYYCRYVHYGLAPMDAWGQGTSVTVSS VL: DVVMTQTPVSLSVSLGGQVSISCRSSQSLVHNNGNTYLSWYLQKAGQSPQLLIYKVSNRFSGISDRFSGSGSGTDFILKISRVEPDDLGVFYCGQGTQYPFTFGAGTKLELK"
measurementkind = "log10(EC50)"
experimentalvalue = 1.16

[[record]]
binder = "4B4-D7 Fab (Fab, V domains shown, also called BDW-4B4-D7) VH: EVQLVETGGRLVQPGRSLKLTCATSGFTFSNAWMHWVRQSPEKQLEWVAQIKARSNNYATYYAESVKGRFTISRDDSKSTIYLQMNSLKEEDTAIYYCRGTYYASKPFDYWGQGVMVTVSS VL: DVVMTQTPVSLSVSLGGQVSISCRSSQSLVHDNGNTYLSWSLQRPGQSPQVLIYKVSNRFSGTSDRFTGSGSGTDFTLKISRVEPDDLGVYYCGQGTQYPFTFGSGTKLEIKR"
measurementkind = "log10(EC50)"
experimentalvalue = 1.18

[[record]]
binder = "10E6-G6 Fab (Fab, V domains shown) VH: EVQLVETGGGLVQSGKSLKLTCATSGFTVTNAWMHWVRQSPEKQLEWVAQIKAKSNNYETYYAESVKGRFTISRDDSKSSVYLQMNSLKEEDTAIYYCRGTQYGYNPFDYWGQGVMVTVSS VL: DVVMTQSPVSLSVSLGGQVSISCRSSQSLVHNNGYTYLSWYLQKPGQSPQVFIYKVSNRFSGISDRFSGSGSGTDFTLKISRIEPDDLGVYYCGQGTHYPFTFGSGTKLEIK"
measurementkind = "log10(EC50)"
experimentalvalue = 0.67

[[record]]
binder = "20G6-F3 Fab (Fab, V domains shown, also called BDW-20G6-F3) VH: EVQLVETGGSLVQPGKSLKLTCATSGFTFTKAWMHWVRQSPEKQLEWVAQIKDKSNSYATYYAESVKGRFTISRDDSKSTIYLQMNSLKEEDTAIYYCRGVYYALSPFDYWGQGVMVTVSS VL: DVVMTQTPVSLSVSLGGQVSISCRSSQSLVHNNGNTYLSWYLQKPGQSPQSLIYKVSNRFSGFSDRFSGSGSGTDFTLKISRVDPDDLGVYYCGQGTQYPFTFGSGTKLEIKR"
measurementkind = "log10(EC50)"
experimentalvalue = 1.15


[in] Which log10(EC50) value is on record for 18G9-H11 Fab (Fab, V domains shown) VH: EVQLVETGGSLVQPGKSLKLTCATSGFTFSNAWIQWVRQSPEKQLEWVAQIKAKSNNYATYYAESVKGRFTISRDDSKSSVYLQMNSLKEEDTALYYCTWRHYYSSHTMDAWGQGTLVTVSS VL: DVVMTQTPVSLSVSLGGQVSISCRSSQSLVHNNGNTYLSWYLQKPGQSPQLLIYKVSNRFSGISDRFSGSGSGTDFTLKISRVAPTDLGVYYCGQGSQYPFTFGAGTKLELK ?
[out] 0.23

[in] Moving on to the next binder: 18F5-H10 Fab (Fab, V domains shown, also called BDX-18F5-H10) VH: EVQVVETGGSLVQPGKSLKLTCATSGFTFTNAWMHWVRRSPEKQLEWVAQIKDKSNNYATYYAESVKGRFTISRDDSKSSIYLQMNSLKEEDTAIYYCRYVHYRFAYALDAWGRGTSVSVSS VL: DVLMTQTPVSLSVSLGGQVSISCRSSQSLVHTNGNTYLSWYLQKPGQSPQLLIYKVSNRLSGISDRFSGSGSGTDFTLKISRVEPDDLGVYYCGQGTHYPFTFGAGTKLELKR
[out] 0.61

[in] Field entry: 11F9-F8 Fab (Fab, V domains shown, also called 11F9-F8-huFab) VH: EVQLVETGGTLVQPGKSLKLTCATSGFTFSNAWMHWVRQSPEKQLEWVAQIKAKSNNYATYYAESVKGRFTISRDDSKTSVYLQLNSLREEDTAIYYCRGTQYGYNPFDYWGQGVMVTVSS VL: DVVLTQTPVSLSVSLGGQVSISCRSSQSLVHNNGNTYLSWSLQKPGQSPQVLIYKVSNRFSGISNRFSGSGSGTDFTLKISRVEPDDLGVYYCGQGAHYPFTFGSGTKLEIK
[out] 1.06

[in] Can you check 1E6-C9 Fab (Fab, V domains shown, also called 1E6-B8; 1E6-B8/B9-C9-Fab) VH: EVQLVETGGSLVQPGKSLKLTCATSGFTFSYAWMHWVRQSPDKQLQWVAQIKAKSNNYATYYAESVEGRFTISRDDSKSSVYLQMNSLKEEDTAIYYCRGVYYGLLGLDAWGQGTSVTVSS VL: DVVMTQTPVSLSVRLGGQVSISCRSSQSLVHNNGNTYLSWFLQKPGQSPQLLIYKVSNRFSGISDRFSGSASGTDFTLKISRVEPDDLGVYYCGQGTHYPFTFGSGTKLEIK next?
[out] 1.27

[in] Quick one: 20E5-F10 Fab (Fab, V domains shown, also called 20E5-F10-huFab) VH: EVQLVETGENLVQPGKSLRLTCATSGFSFSNAWMHWIRQSPEKQLEWVAQIKDKSNNYATYYAESVNGRFTISRDDSKSSIYLHMDNLKEEDSAIYYCRYVHYGVRFFYTMDVWGQGTSVTVSS VL: DVVMTQTPVSLSVSLGDQVSISCRPSQSLVHNNGNTYLSWYLQKPGQSPHPLIYKVSNRFSGISDRFSGSGSGTDFTLKISRVEPDDLGVYYCGQGTQYPFTFGSGTKLEIK
[out] 0.91

[in] Ok, now 12G3-E8 Fab (Fab, V domains shown) VH: EVRVVETGGSLVQPGKSLKLTCATSGFTFSLAWMHWVRQSPEKKLEWVAQIKDKANNYATYYAESVKGRFTISRDDSKRSVYLQMNRLKEEDTAIYYCRGVYYGFSMTPFDYWGQGVMVTVSS VL: DVAMTQTPVSLSVSLGGQVSISCRSSQSLVHNNGNTYLSWYLQKPGQSPQVLIYKVSNRFSGISDRFSGSGSGADFTLKISRVEPDDLGVYYCGQGTQYPFTFGAGTKLELK
[out] 0.64
